Observed pIC50 for Bromodomain-containing protein 9 (Homo sapiens, UniProt Q9H8M2), reported per entry below.
Just so you know, pIC50 here is -log10 of the concentration in molar units; reply with that number alone.

Sample answers from the record:
> print(dat)
                               input.smiles  measure.name  endpoint.value
1  COc1cc(C#N)ccc1S(=O)(=O)Nc1ccc2c(c1)cc(C(C)C)c(=O)n2C         pIC50            5.03
2  COc1cc(C#N)ccc1S(=O)(=O)Nc1ccc2c(c1)cc(C)c(=O)n2C         pIC50            6.28
3   Cn1c(=O)ccc2cc(S(=O)(=O)Nc3ccccc3)ccc21         pIC50            5.01

Kindly review the next compound as well.
GET /values?item= `Cn1c(=O)ccc2cc(NS(=O)(=O)c3ccccc3)ccc21` &system= Bromodomain-containing protein 9 (Homo sapiens, UniProt Q9H8M2) returns pIC50: 5.66
